B1: STK38L (parent)
chain: RQLAYSTVGTPDYIAPEVFMQTGY

variants of: B1; experiment: protein stability index of a GFP-peptide fusion (GPS, HEK-293T) (PSI 1-6); higher = more stable; details: c terminus: a fixed tail appended;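 further: lentivirally expressed fusions sorted by FACS into six bins by GFP to DsRed ratio, PSI derived from sequencing read proportions per bin multiplied by bin number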
protein stability index values by entry
Provide a numeric answer; units are not to be included.

RQLAYSTVGWPDYIAPEVFMQTGY [T10W] :: 1.72
RQLAYSTVGTPDYIAPEVFMQTGT [Y24T] :: 3.42
RQLAYSTVGNPDYIAPEVFMQTGY [T10N] :: 2.05
RQLAKSTVGTPDYIAPEVFMQTGY [Y5K] :: 2.58

# query: protein stability index of entry RQLAYSTVGTPDYIAPEVFVQTGY [M20V] 3.1

Data credit: the supplement of paper PMC10567573
